This collection of values is drawn from ChEMBL document CHEMBL1697781.

Test system: Hepatotoxicity
Assay: FDA HLAED, gamma-glutamyl transferase (GGT) increase
Conditions: human
QUANTITY NAME: GGT Increase - Number of Reports

Some solved entries appear below for comparison.
Cc1nccn1CC1CCc2c(c3ccccc3n2C)C1=O (centres undefined)    < 4
Cc1cn([C@H]2C[C@H](N=[N+]=[N-])[C@@H](CO)O2)c(=O)[nH]c1=O    < 4
CCC(C)n1ncn(-c2ccc(N3CCN(c4ccc(OCC5COC(Cn6cncn6)(c6ccc(Cl)cc6Cl)O5)cc4)CC3)cc2)c1=O (centres undefined)    >= 4
CCOC(=O)[C@H](CCc1ccccc1)N[C@@H](C)C(=O)N1[C@H](C(=O)O)C[C@H]2CCCC[C@@H]21    < 4
CC(C)C(=O)Nc1ccc([N+](=O)[O-])c(C(F)(F)F)c1 [FLUTAMIDE]    >= 4

Read off the recorded GGT Increase - Number of Reports for CN1C(C(=O)Nc2ccccn2)=C(O)c2ccccc2S1(=O)=O
< 4

Read off the recorded GGT Increase - Number of Reports for CN(C)C(=N)N=C(N)N
< 4

Read off the recorded GGT Increase - Number of Reports for C[C@@H]1O[C@@H]1P(=O)(O)O
< 4

Read off the recorded GGT Increase - Number of Reports for Nc1ccc(O)c(C(=O)O)c1
>= 4
